Target: SARS-CoV-2 spike (S) protein, full length, wild type, expressed on the surface of CHO cells (SARS-CoV-2, UniProt P0DTC2 14-1273)
Collected median fluorescence fold over isotype values appear next to each entry.
quantity_measured: median fluorescence fold over isotype (fold over isotype)

[[record]]
binder = "antibody 367 (antibody, V domains shown) VH: QVQLVQSGAEVKKPGASVKVSCKASGYTFTGYYIHWVRQAPGQGLEWMGWINPNSGGTIYAQKFQGRVTMTRDTSISTAYMELSRLTSDDTAVYSCAREPYYDILTGYYAPRRYFDYWGQGTLVTVSS VL: QSALTQPASVSGSPGQSITISCTGTSSDVGSYNYVSWYLQHPGKAPKLMIYDVSNRPSGVSNRFSGSKSGNTASLTISGLQAEDEADFYCSSYTSRSTYVFGTGTKVTVL"
quantity_measured = "median fluorescence fold over isotype"
observed_result = 26.5

[[record]]
binder = "antibody 333 (antibody, V domains shown) VH: QVHLVESGGGVVLPGRSLRLSCSASQFIFSNYDMHWVRQSPGMGLEWVAGISSDGSDKYYIDSVRGRFTISRDNAKNTLFLQMNSLTTEDTAVYSCAKGGGKFGQYWGRGTLVTVSS VL: AIQMTQSPSSLSASVGDRVTITCRASQVIRNDLAWFQQKPGEAPNLLVYSASNLQSGVPSRFSGSGSGTDFTLTISSLQPEDFATYYCLQDYSYPYTFGQGTKLDMK"
quantity_measured = "median fluorescence fold over isotype"
observed_result = 1.27

